Here the recorded K is given for each entry.
Molecular target: Albumin (Homo sapiens, UniProt P02768)
Sequence (P02768 whole entry): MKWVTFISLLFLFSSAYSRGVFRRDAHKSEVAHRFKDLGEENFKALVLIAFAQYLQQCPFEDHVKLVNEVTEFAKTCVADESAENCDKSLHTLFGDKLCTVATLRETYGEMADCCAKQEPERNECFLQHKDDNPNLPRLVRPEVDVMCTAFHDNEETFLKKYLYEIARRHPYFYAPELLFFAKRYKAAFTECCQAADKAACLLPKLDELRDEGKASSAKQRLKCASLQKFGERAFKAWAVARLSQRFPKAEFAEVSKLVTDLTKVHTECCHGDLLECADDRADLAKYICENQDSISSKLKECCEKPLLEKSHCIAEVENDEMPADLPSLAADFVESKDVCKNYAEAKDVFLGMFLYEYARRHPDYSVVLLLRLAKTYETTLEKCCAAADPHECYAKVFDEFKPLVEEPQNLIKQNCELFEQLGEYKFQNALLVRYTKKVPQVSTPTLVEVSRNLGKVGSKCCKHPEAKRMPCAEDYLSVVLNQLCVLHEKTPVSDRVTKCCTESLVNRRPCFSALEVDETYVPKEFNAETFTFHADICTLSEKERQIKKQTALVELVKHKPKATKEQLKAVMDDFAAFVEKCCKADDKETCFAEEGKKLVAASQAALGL
Experiment: Binding affinity to human serum albumin assessed as retention factor by HPAC method
Assay type: ADME
Starred links: 1 amine or outer side, 2 acyl side, 3 side chain; linkers in the order of their positions; H or OH if unused. Non-standard residues stand in square brackets, D forms with d. Groups on a side chain read outwards from the residue. ξ: configuration not given here. *: point of attachment. X1 = Cc1ccc(C)c(OCCCC(C)(C)C(=O)OCC(=O)NCCCCCCCCCC(NC(=O)COC(=O)C(C)(C)CCCOc2cc(C)ccc2C)C(=O)*)c1; X2 = Cc1ccc(C)c(OCCCC(C)(C)C(=O)OCC(=O)NCCCCC(NC(=O)COC(=O)C(C)(C)CCCOc2cc(C)ccc2C)C(=O)*)c1; Glycoloyl(O-gemfibrozoyl) = Cc1ccc(C)c(OCCCC(C)(C)C(=O)OCC(=O)*)c1; γGlu = O=C(O)[C@H](CCC(=O)[*:2])N[*:1]; Aun = NCCCCCCCCCCC(=O)O; ξK = NCCCCC(N)C(=O)O; Ahx = NCCCCCC(=O)O
Endpoint label: K

{"columns": ["Substance", "Value reported"],
 "data": [
  ["H-HGEGTYTNDVTEYLEEEAAK([γGlu-X1])EFIEWLIKGKPSSGAPPSKKKKKK-OH", 12.1],
  ["H-HGEGTYTNDVTEYLEEEAAK([γGlu-Aun-Glycoloyl(O-gemfibrozoyl)])EFIEWLIKGKPSSGAPPSKKKKKK-OH", 7.3],
  ["H-HGEGTYTNDVTEYLEEEAA[ξK]([γGlu-Ahx-Glycoloyl(O-gemfibrozoyl)])EFIEWLIKGKPSSGAPPSKKKKKK-OH", 6.4],
  ["H-HGEGTYTNDVTEYLEEEAA[ξK]([γGlu-X2])EFIEWLIKGKPSSGAPPSKKKKKK-OH", 11.2]
]}

----------
Target: Glucagon-like peptide 1 receptor (Homo sapiens)
Sequence (P43220 whole entry): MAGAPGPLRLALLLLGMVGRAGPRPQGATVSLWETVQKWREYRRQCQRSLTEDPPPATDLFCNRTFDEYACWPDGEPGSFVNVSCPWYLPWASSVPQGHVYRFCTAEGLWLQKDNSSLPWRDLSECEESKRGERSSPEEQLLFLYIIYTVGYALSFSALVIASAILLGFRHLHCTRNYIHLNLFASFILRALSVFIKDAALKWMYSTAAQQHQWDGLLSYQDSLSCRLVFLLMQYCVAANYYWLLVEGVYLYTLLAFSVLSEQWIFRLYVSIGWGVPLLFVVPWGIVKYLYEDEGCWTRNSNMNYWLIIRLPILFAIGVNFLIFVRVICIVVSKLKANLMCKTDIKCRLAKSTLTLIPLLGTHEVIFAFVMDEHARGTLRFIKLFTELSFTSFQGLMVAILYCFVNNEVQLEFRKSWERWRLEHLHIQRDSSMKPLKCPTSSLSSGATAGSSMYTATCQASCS
Test: Agonist activity at human GLP-1R expressed in HEK293 cells assessed as stimulation of cAMP accumulation incubated for 60 mins by HTRF assay
Type: functional, cell-based
pEC50: −log10 of the molar value. Starred links: 1 amine or outer side, 2 acyl side, 3 side chain; linkers in the order of their positions; H or OH if unused. Non-standard residues stand in square brackets, D forms with d. Groups on a side chain read outwards from the residue. ξ: configuration not given here. *: point of attachment. X1 = Cc1ccc(C)c(OCCCC(C)(C)C(=O)OCC(=O)NCCCCCCCCCC(NC(=O)COC(=O)C(C)(C)CCCOc2cc(C)ccc2C)C(=O)*)c1; X2 = Cc1ccc(C)c(OCCCC(C)(C)C(=O)OCC(=O)NCCCCC(NC(=O)COC(=O)C(C)(C)CCCOc2cc(C)ccc2C)C(=O)*)c1; Glycoloyl(O-gemfibrozoyl) = Cc1ccc(C)c(OCCCC(C)(C)C(=O)OCC(=O)*)c1; γGlu = O=C(O)[C@H](CCC(=O)[*:2])N[*:1]; Aun = NCCCCCCCCCCC(=O)O; ξK = NCCCCC(N)C(=O)O; Ahx = NCCCCCC(=O)O
Here the recorded pEC50 is given for each entry.

{"columns": ["Substance", "pEC50"],
 "data": [
  ["H-HGEGTYTNDVTEYLEEEAA[ξK]([γGlu-X2])EFIEWLIKGKPSSGAPPSKKKKKK-OH", 10.04],
  ["H-HGEGTYTNDVTEYLEEEAA[ξK]([γGlu-Ahx-Glycoloyl(O-gemfibrozoyl)])EFIEWLIKGKPSSGAPPSKKKKKK-OH", 10.28],
  ["H-HGEGTYTNDVTEYLEEEAAK([γGlu-X1])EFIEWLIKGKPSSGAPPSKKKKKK-OH", 9.51],
  ["H-HGEGTYTNDVTEYLEEEAAK([γGlu-Aun-Glycoloyl(O-gemfibrozoyl)])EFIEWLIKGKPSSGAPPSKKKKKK-OH", 9.96]
]}

----------
Here the recorded half-life at 1000 ng/ml is given for each entry.
Test: Stability in Sprague-Dawley rat plasma assessed as half life at 1000 ng/ml measured up to 48 hrs under shaking condition by LC-MS/MS analysis
Type: ADME, cell-free
Starred links: 1 amine or outer side, 2 acyl side, 3 side chain; linkers in the order of their positions; H or OH if unused. Non-standard residues stand in square brackets, D forms with d. Groups on a side chain read outwards from the residue. ξ: configuration not given here. *: point of attachment. X1 = Cc1ccc(C)c(OCCCC(C)(C)C(=O)OCC(=O)NCCCCCCCCCC(NC(=O)COC(=O)C(C)(C)CCCOc2cc(C)ccc2C)C(=O)*)c1; X2 = Cc1ccc(C)c(OCCCC(C)(C)C(=O)OCC(=O)NCCCCC(NC(=O)COC(=O)C(C)(C)CCCOc2cc(C)ccc2C)C(=O)*)c1; Glycoloyl(O-gemfibrozoyl) = Cc1ccc(C)c(OCCCC(C)(C)C(=O)OCC(=O)*)c1; γGlu = O=C(O)[C@H](CCC(=O)[*:2])N[*:1]; Aun = NCCCCCCCCCCC(=O)O; ξK = NCCCCC(N)C(=O)O; Ahx = NCCCCCC(=O)O

{"columns": ["Substance", "half-life at 1000 ng/ml / h"],
 "data": [
  ["H-HGEGTYTNDVTEYLEEEAA[ξK]([γGlu-X2])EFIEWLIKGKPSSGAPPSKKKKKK-OH", 29.5],
  ["H-HGEGTYTNDVTEYLEEEAAK([γGlu-Aun-Glycoloyl(O-gemfibrozoyl)])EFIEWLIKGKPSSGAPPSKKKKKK-OH", 20.1],
  ["H-HGEGTYTNDVTEYLEEEAAK([γGlu-X1])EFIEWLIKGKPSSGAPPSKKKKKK-OH", 33.9],
  ["H-HGEGTYTNDVTEYLEEEAA[ξK]([γGlu-Ahx-Glycoloyl(O-gemfibrozoyl)])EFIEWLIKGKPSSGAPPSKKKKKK-OH", 16.3]
]}

----------
System: Mus musculus
Assay: Hypoglycemic activity in 12 hrs fasted ICR mouse assessed as reduction in blood glucose level at 25 nmol/kg, ip dosed 30 mins before glucose challenge measured up to 120 mins by OGTT method
Format: functional, organism-based
Conditions: time 150.0 min
The source made the active and inactive calls. The rule behind the calls is not given here. Starred links: 1 amine or outer side, 2 acyl side, 3 side chain; linkers in the order of their positions; H or OH if unused. Non-standard residues stand in square brackets, D forms with d. Groups on a side chain read outwards from the residue. ξ: configuration not given here. *: point of attachment. X2 = Cc1ccc(C)c(OCCCC(C)(C)C(=O)OCC(=O)NCCCCC(NC(=O)COC(=O)C(C)(C)CCCOc2cc(C)ccc2C)C(=O)*)c1; Glycoloyl(O-gemfibrozoyl) = Cc1ccc(C)c(OCCCC(C)(C)C(=O)OCC(=O)*)c1; γGlu = O=C(O)[C@H](CCC(=O)[*:2])N[*:1]; Aun = NCCCCCCCCCCC(=O)O; ξK = NCCCCC(N)C(=O)O; Ahx = NCCCCCC(=O)O

{"columns": ["Substance", "Activity"],
 "data": [
  ["H-HGEGTYTNDVTEYLEEEAA[ξK]([γGlu-Ahx-Glycoloyl(O-gemfibrozoyl)])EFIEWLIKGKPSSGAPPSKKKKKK-OH", "Active"],
  ["H-HGEGTYTNDVTEYLEEEAA[ξK]([γGlu-X2])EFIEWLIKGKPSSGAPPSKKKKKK-OH", "Active"],
  ["H-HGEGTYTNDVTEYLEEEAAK([γGlu-Aun-Glycoloyl(O-gemfibrozoyl)])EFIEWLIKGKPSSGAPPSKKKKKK-OH", "Active"]
]}
